assay summary: In vivo biodistribution in mice
Parameters: species or system normal CD-1 male mice
run conditions: iv, 60 min (1 hr) post injection
Would you kindly list Biodistribution: Bone for each of these compounds?
Record the value in % dose/g, omitting the unit from your answer.

[ask] Output measured Biodistribution: Bone for this item: O=C(O)CN1CCN(CC(=O)O)CCN(CC(=O)NC(P(=O)(O)O)P(=O)(O)O)CCN(CC(=O)O)CC1.[68Ga] [[^68Ga]BPAMD, reference compound]
[reply] 9.21

[ask] Output measured Biodistribution: Bone for this item: O=C([O-])CN(CCN(CC(=O)[O-])Cc1cc(CCC(=O)NC(P(=O)(O)O)P(=O)(O)O)ccc1[O-])Cc1cc(CCC(=O)NC2C(O)OC(CO)C(O)C2O)ccc1[O-].[68Ga+3] (stereo not shown) [[^68Ga]1b]
[reply] 19.4

[ask] Output measured Biodistribution: Bone for this item: O=C([O-])CN(CCN(CC(=O)[O-])Cc1cc(CCC(=O)O)ccc1[O-])Cc1cc(CCC(=O)O)ccc1[O-].[68Ga+3] [[^68Ga]HBED-CC, reference compound]
[reply] 0.25

[ask] Output measured Biodistribution: Bone for this item: O=C([O-])CN(CCN(CC(=O)[O-])Cc1cc(CCC(=O)N[C@@H](CCC(=O)O)C(=O)O)ccc1[O-])Cc1cc(CCC(=O)NC(P(=O)(O)O)P(=O)(O)O)ccc1[O-].[68Ga+3] [[^68Ga]1f]
[reply] 14.4

---

Would you kindly list Biodistribution: Kidney for each of these compounds?
assay summary: In vivo biodistribution in mice
Parameters: species or system normal CD-1 male mice
run conditions: iv, 60 min (1 hr) post injection
Record the value in % dose/g, omitting the unit from your answer.

[ask] Output measured Biodistribution: Kidney for this item: O=C([O-])CN1CCN(CC(=O)[O-])CCN(CC(=O)NCCNC(=O)CCc2ccc(O)c(CN(CCN(CC(=O)O)Cc3cc(CCC(=O)NC(P(=O)(O)O)P(=O)(O)O)ccc3O)CC(=O)O)c2)CCN(CC(=O)[O-])CC1.[177Lu+3] [[^177Lu]1h]
[reply] 1.48

[ask] Output measured Biodistribution: Kidney for this item: O=C([O-])CN(CCN(CC(=O)[O-])Cc1cc(CCC(=O)NC(P(=O)(O)O)P(=O)(O)O)ccc1[O-])Cc1cc(CCC(=O)NC(P(=O)(O)O)P(=O)(O)O)ccc1[O-].[68Ga+3] [[^68Ga]2]
[reply] 2.61

[ask] Output measured Biodistribution: Kidney for this item: O=C([O-])CN(CCN(CC(=O)[O-])Cc1cc(CCC(=O)NC(P(=O)(O)O)P(=O)(O)O)ccc1[O-])Cc1cc(CCC(=O)NCCCNC(=O)CCc2ccc(O)c(CN(CCN(CC(=O)O)Cc3cc(CCC(=O)NC(P(=O)(O)O)P(=O)(O)O)ccc3O)CC(=O)O)c2)ccc1[O-].[68Ga+3] [[^68Ga]3]
[reply] 7.99

---

assay summary: In vivo biodistribution in mice
Parameters: species or system normal CD-1 male mice
run conditions: iv, 120 min post injection
measured parameter: Biodistribution: Liver (% dose/g)
Record the value in % dose/g, omitting the unit from your answer.

[ask] Output measured Biodistribution: Liver for this item: O=C([O-])CN(CCN(CC(=O)[O-])Cc1cc(CCC(=O)NC(P(=O)(O)O)P(=O)(O)O)ccc1[O-])Cc1cc(CCC(=O)NCCCNC(=O)CCc2ccc(O)c(CN(CCN(CC(=O)O)Cc3cc(CCC(=O)NC(P(=O)(O)O)P(=O)(O)O)ccc3O)CC(=O)O)c2)ccc1[O-].[68Ga+3] [[^68Ga]3]
[reply] 25.4

[ask] Output measured Biodistribution: Liver for this item: O=C([O-])CN(CCN(CC(=O)[O-])Cc1cc(CCC(=O)NC(P(=O)(O)O)P(=O)(O)O)ccc1[O-])Cc1cc(CCC(=O)NCCNC(=O)CN2CCN(CC(=O)O)CCN(CC(=O)O)CCN(CC(=O)O)CC2)ccc1[O-].[68Ga+3] [[^68Ga]1h]
[reply] 0.09

[ask] Output measured Biodistribution: Liver for this item: O=C([O-])CN(CCN(CC(=O)[O-])Cc1cc(CCC(=O)O)ccc1[O-])Cc1cc(CCC(=O)O)ccc1[O-].[68Ga+3] [[^68Ga]HBED-CC, reference compound]
[reply] 0.04

[ask] Output measured Biodistribution: Liver for this item: O=C([O-])CN(CCN(CC(=O)[O-])Cc1cc(CCC(=O)NC(P(=O)(O)O)P(=O)(O)O)ccc1[O-])Cc1cc(CCC(=O)NC(P(=O)(O)O)P(=O)(O)O)ccc1[O-].[68Ga+3] [[^68Ga]2]
[reply] 0.40

[ask] Output measured Biodistribution: Liver for this item: O=C([O-])CN(CCN(CC(=O)[O-])Cc1cc(CCC(=O)NC(P(=O)(O)O)P(=O)(O)O)ccc1[O-])Cc1cc(CCC(=O)NC2C(O)OC(CO)C(O)C2O)ccc1[O-].[68Ga+3] (stereo not drawn) [[^68Ga]1b]
[reply] 1.22

[ask] Output measured Biodistribution: Liver for this item: O=C([O-])CN(CCN(CC(=O)[O-])Cc1cc(CCC(=O)NC(P(=O)(O)O)P(=O)(O)O)ccc1[O-])Cc1cc(CCC(=O)NCCCCCC(=O)NCCCC[C@H](NC(=O)N[C@@H](CCC(=O)O)C(=O)O)C(=O)O)ccc1[O-].[68Ga+3] [[^68Ga]1g]
[reply] 0.18

[ask] Output measured Biodistribution: Liver for this item: O=C(O)CN1CCN(CC(=O)O)CCN(CC(=O)NC(P(=O)(O)O)P(=O)(O)O)CCN(CC(=O)O)CC1.[68Ga] [[^68Ga]BPAMD, reference compound]
[reply] 0.31

[ask] Output measured Biodistribution: Liver for this item: C[C@H](NC(=O)CCc1ccc([O-])c(CN(CCN(CC(=O)[O-])Cc2cc(CCC(=O)NC(P(=O)(O)O)P(=O)(O)O)ccc2[O-])CC(=O)[O-])c1)C(=O)O.[68Ga+3] [[^68Ga]1d]
[reply] 0.10

[ask] Output measured Biodistribution: Liver for this item: O=C([O-])CN(CCN(CC(=O)[O-])Cc1cc(CCC(=O)N[C@@H](CC(=O)O)C(=O)O)ccc1[O-])Cc1cc(CCC(=O)NC(P(=O)(O)O)P(=O)(O)O)ccc1[O-].[68Ga+3] [[^68Ga]1e]
[reply] 0.14
